Molecular target: T1, human PD-L1 protein (monomeric, soluble analyte) (human, UniProt Q9NZQ7 19-238)
T1 construct: Recombinant human PD-L1 protein used as analyte on Octet or Biacore; also called monomeric PD-L1; monomeric human ligand
T1 sequence (Q9NZQ7 19-238 limits assumed): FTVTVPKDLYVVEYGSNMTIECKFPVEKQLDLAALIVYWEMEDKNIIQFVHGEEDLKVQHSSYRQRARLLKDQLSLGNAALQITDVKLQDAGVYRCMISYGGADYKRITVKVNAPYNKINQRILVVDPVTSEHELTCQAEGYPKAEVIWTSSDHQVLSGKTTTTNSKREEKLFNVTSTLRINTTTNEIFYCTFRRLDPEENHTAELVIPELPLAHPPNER
Assay: Biacore, IgG KD, monovalent format, human PD-L1-His
Parameter: Kd. Scope: all listed entries.
Give just the number in nM; leave the unit off.

# Kd lookup, item ADI-38003 (antibody, V domains shown) VH: QVQLQQWGAGLLKPSETLSLTCAVYGGSLSGYPWSWIRQPPGKGLEWIGETDVSGWTDYNPSLKSRVTISVDTSKNQFSLKLSSVTAADTAVYYCARDGRRMGTPSFDIWGQGTMVTVSS VL: DIQMTQSPSSVSASVGDRVTITCRASKGISSFLAWYQQKPGKAPKLLIYAASSLNSGVPSRFSGSGSGTDFTLTISSLQPEDFATYYCQKAVYFPPTFGGGTKVEIKR 8.09

Recorded Kd of ADI-37464 (antibody, V domains shown) VH: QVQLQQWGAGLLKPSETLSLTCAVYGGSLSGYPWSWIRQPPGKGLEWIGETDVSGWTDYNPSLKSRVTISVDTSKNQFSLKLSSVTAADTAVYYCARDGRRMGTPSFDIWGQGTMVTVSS VL: DIQMTQSPSSVSASVGDRVTITCRASQGINSFLAWYQQKPGKAPKLLIYAASSLNSGVPSRFSGSGSGTDFTLTISSLQPEDFATYYCQKAVYFPPTFGGGTKVEIKR , please. 2.76

Next:
# Kd lookup, item ADI-38004 (antibody, V domains shown) VH: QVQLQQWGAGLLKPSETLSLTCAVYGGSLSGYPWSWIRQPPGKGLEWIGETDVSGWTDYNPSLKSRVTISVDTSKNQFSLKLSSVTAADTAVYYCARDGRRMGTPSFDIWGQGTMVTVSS VL: DIQMTQSPSSVSASVGDRVTITCRASQGISSFLAWYQQKPGKAPKLLIYAASSLNSGVPSRFSGSGSGTDFTLTISSLQPEDFATYYCQSAVYFPPTFGGGTKVEIKR 37.7

Consider the binder shown here: ADI-38002 (antibody, human IgG1, kappa, V domains shown, Human IgG1 (GASDIE); Some in vivo work used a mouse IgG2a form; also called Ab-38002; test antibody 38002) VH: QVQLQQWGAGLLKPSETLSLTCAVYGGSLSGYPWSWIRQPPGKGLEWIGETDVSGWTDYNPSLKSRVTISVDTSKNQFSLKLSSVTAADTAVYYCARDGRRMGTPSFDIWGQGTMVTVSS VL: DIQMTQSPSSVSASVGDRVTITCRASQDINSFLAWYQQKPGKAPKLLIYAASSLNSGVPSRFSGSGSGTDFTLTISSLQPEDFATYYCQKSVYFPPTFGGGTKVEIKR What is its recorded Kd? 3.76
